Test system: SNB-19
METHOD_DESCRIPTION: NCI tumour cell line growth inhibition, 48 h
The source made the active and inactive calls. Rule as the data show it: active = GI50 up to about 1.1 µM and inactive = higher.
RESULT_TYPE: GI50

O=C(O)C(Cc1ccc(O)cn1)NC(=O)C(F)(F)F (stereo not drawn) :: > 100 µM (inactive)
Cc1cc2c(cc1Cl)SC(NS(=O)(=O)c1ccc(Cl)cc1)=NS2(=O)=O :: 65.6 µM (inactive)

**Q:** Given the compound `COc1cc(OC)c(OC)cc1/C=C\c1nccc2ccccc12` , what is its reported GI50?
**A:** 18.5 µM (inactive)

----------
System: TK-10
METHOD_DESCRIPTION: NCI tumour cell line growth inhibition, 48 h
Calls of active or inactive are those of the source. Rule as the data show it: active = GI50 up to about 1.1 µM and inactive = higher.
RESULT_TYPE: GI50

O=C(OCC1OC(c2nn[nH]n2)C(OC(=O)c2ccccc2)C1OC(=O)c1ccccc1)c1ccccc1 (stereo unspecified) :: > 100 µM (inactive)

Quick one: give me GI50 for each item below, same order please.
1. CCOC(=O)/C=C1/Oc2ccccc2C1(C)O (stereo unspecified)
2. CN1CC(S(=O)(=O)c2ccccc2)CC(S(=O)(=O)c2ccccc2)C1c1ccccc1 (stereo unspecified)
3. CCN(CC)CCNC(=O)c1cccc2nc3ccccc3nc12
4. NC(=O)CC(N)c1nnn[nH]1 (stereo unspecified)

**A:**
1. > 100 µM (inactive)
2. 14.2 µM (inactive)
3. 27.2 µM (inactive)
4. > 100 µM (inactive)
